- protocol-details: AUC (0 to infinity) in mouse at 100 mg/kg, iv
- Type: ADME, organism-based
- Parameters: time infinity, dose 100 mg/kg, route intravenous
- run-conditions: plasma
Collected AUC(0-inf) values appear next to each entry.
Write it as a number; the unit µg·h/mL goes unstated.

INSERT INTO results (molecule, experimental_value) VALUES
  ('CC1=C2CC[C@@](C)(O)[C@@H]2[C@H]2OC(=O)[C@@H](CN(C)C)[C@@H]2CC1.Cl [DIMETHYLAMINOMICHELIOLIDE HYDROCHLORIDE]', 44.8);

The record that follows has no AUC(0-inf) shown yet.
Dear colleague, please send me the reported AUC(0-inf) for C=C1C(=O)O[C@H]2[C@H]1CCC(C)=C1CC[C@@](C)(O)[C@@H]12 [MICHELIOLIDE] when you can.
5.85

----------
- protocol-details: Oral bioavailability in mouse at 150 mg/kg
- Assay type: ADME, organism-based
- run-conditions: in vivo
value-kind: bioavailability (%)
Write it as a number; the unit % goes unstated.

Dear colleague, please send me the reported bioavailability for CC1=C2CC[C@@](C)(O)[C@@H]2[C@H]2OC(=O)[C@@H](CN(C)C)[C@@H]2CC1.Cl [DIMETHYLAMINOMICHELIOLIDE HYDROCHLORIDE] when you can.
75

----------
- protocol-details: Mean retention time (0 to t) in mouse at 100 mg/kg, iv
- Assay type: ADME, organism-based
- Parameters: dose 100 mg/kg, route intravenous
- run-conditions: in vivo
value-kind: MRT last (h)
Write it as a number; the unit h goes unstated.

INSERT INTO results (compound, experimental_value) VALUES
  ('C=C1C(=O)O[C@H]2[C@H]1CCC(C)=C1CC[C@@](C)(O)[C@@H]12 [MICHELIOLIDE]', 1.49);

The record that follows has no MRT last shown yet.
Dear colleague, please send me the reported MRT last for CC1=C2CC[C@@](C)(O)[C@@H]2[C@H]2OC(=O)[C@@H](CN(C)C)[C@@H]2CC1.Cl [DIMETHYLAMINOMICHELIOLIDE HYDROCHLORIDE] when you can.
1.51

----------
- protocol-details: Tmax in mouse at 150 mg/kg, po
- Type: ADME, organism-based
- Set-up: dose 150 mg/kg, route oral
- run-conditions: in vivo
value-kind: Tmax (min)
Write it as a number; the unit min goes unstated.

INSERT INTO measurements (compound, experimental_value) VALUES
  ('C=C1C(=O)O[C@H]2[C@H]1CCC(C)=C1CC[C@@](C)(O)[C@@H]12 [MICHELIOLIDE]', 21.6);

The record that follows has no Tmax shown yet.
Dear colleague, please send me the reported Tmax for CC1=C2CC[C@@](C)(O)[C@@H]2[C@H]2OC(=O)[C@@H](CN(C)C)[C@@H]2CC1.Cl [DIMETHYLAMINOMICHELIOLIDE HYDROCHLORIDE] when you can.
11.4

----------
- protocol-details: Toxicity in po dosed BALB/c mouse administered as single dose
- Type: organism-based
- run-conditions: in vivo
value-kind: MTD (mg/kg)
Write it as a number; the unit mg/kg goes unstated.

Dear colleague, please send me the reported MTD for CC1=C2CC[C@@](C)(O)[C@@H]2[C@H]2OC(=O)[C@@H](CN(C)C)[C@@H]2CC1.Cl [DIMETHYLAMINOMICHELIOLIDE HYDROCHLORIDE] when you can.
1000

Numbers sourced from ChEMBL document CHEMBL2202986.
